Data credit: PubChem BioAssay

system: TRPC4 (transient receptor potential cation channel C4 beta), mouse; experiment: positive allosteric modulators of mouse TRPC4, confirmation, cell-based, second round, Fluo-4, HEK293 TRPC4beta/mu-opioid, 1 µM (AID 2554); conditions: DAMGO EC20, Fluo-4 calcium flux, at 1 µM
Activity calls are given as the source filed them.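 Rule for the calls: active = primary screen hit whose fluorescence ratio, in both repeats, exceeds the weak agonist control mean by 3 SD; inactive = the rest.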
// allowed return values: 1.0 = active, 0.0 = inactive

compound	experimental system	assigned label
COc1ccccc1N1CCN(C(c2cccs2)C(C)NC(=O)c2cccs2)CC1 (stereo not given)	TRPC4 (transient receptor potential cation channel C4 beta), mouse	0.0
CN(C)CCCN(C(=O)c1ccc(S(=O)(=O)N2CCCc3ccccc32)cc1)c1nc2ccc(F)cc2s1	TRPC4 (transient receptor potential cation channel C4 beta), mouse	0.0
FC(F)(F)c1cnc(N2CCCN(C(=S)Nc3ccccc3)CC2)c(Cl)c1	TRPC4 (transient receptor potential cation channel C4 beta), mouse	0.0
CCOC(=O)C1(CCc2ccccc2)CCN(Cc2ccc(O)cc2)CC1	TRPC4 (transient receptor potential cation channel C4 beta), mouse	0.0
Cc1csc2c(N3CCN(C(=O)NC(C)(C)C)CC3)ncnc12	TRPC4 (transient receptor potential cation channel C4 beta), mouse	0.0
CC1Cc2ccccc2N1C(=O)CSc1nc2c(c(=O)n(C)c(=O)n2C)n1Cc1ccccc1 (stereo not given)	TRPC4 (transient receptor potential cation channel C4 beta), mouse	1.0
COc1ccc(C(=O)NC(=S)NNC(=O)c2cccc(C)c2)cc1	TRPC4 (transient receptor potential cation channel C4 beta), mouse	0.0
CN1C2C=C(N(CCc3c[nH]c4ccccc34)C(=O)c3ccc(Cl)cc3)CC1CC2 (stereo not given)	TRPC4 (transient receptor potential cation channel C4 beta), mouse	0.0

Prompt: // return assay outcome for CN(C)CCCN(C(=O)c1ccc(S(=O)(=O)N(C)C)cc1)c1nc2ccc(F)cc2s1
Response: 0.0

Prompt: // return assay outcome for CN(C)C(CNC(=O)Cc1cccc(C(F)(F)F)c1)c1ccco1 (stereo not given)
Response: 0.0

====

target: Potassium voltage-gated channel subfamily KQT member 1 (Homo sapiens); test: KCNQ1 channel inhibitors, confirmation, orthogonal assay, cell-based, automated electrophysiology (AID 624120); settings: KCNQ1-CHO cells, automated patch clamp current; at 10 µM
Some of the results follow. Active and inactive are the calls of the source.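 How the source made its calls: active means KCNQ1 current drop exceeding 3 SD of negative control wells, seen in both duplicate runs; inactive means the rest.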
// allowed return values: label 1 = active, label 0 = inactive

Observe how each entry below is paired with its result.
compound	assigned label
CC1CCCN(C(C(=O)Nc2ccc(C(C)C)cc2)c2ccc3c(c2)OCO3)C1 (stereo not drawn)	label 0
CCOC(=O)C1CCN(c2ncnc3c2oc2ccc(Br)cc23)CC1	label 0
Cn1nccc1C(=O)NC1CCCc2c1cnn2-c1ccc(F)cc1F (stereo not drawn)	label 0
Cc1cccc(N2CCN(C(=O)c3cnn4c(C(F)F)cc(-c5ccccc5)nc34)CC2)c1C	label 0

Prompt: // return assay outcome for O=C(CCN1c2ccccc2Sc2ccccc21)Nc1ccccc1
Response: label 0

Prompt: // return assay outcome for CCN(CC)CC(=O)Nc1sc2c(c1C(=O)c1ccccc1C)CCC2
Response: label 0

Prompt: // return assay outcome for CCn1c(C)c(C)c2cc(C(=O)N3CCN(c4cccc(C)c4C)CC3)ccc21
Response: label 0

Prompt: // return assay outcome for CC(C)OCCCNc1ncnc2c1[nH]c1ccc(F)cc12
Response: label 1

====

experiment: thallium flux activation in parental CHO cells, counter-screen for KCNQ1 potentiator project (AID 493006); details: parental CHO-K1 cells, FluxOR thallium flux, at 10 µM;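 for activation: fluorescence ratio of max minus min over baseline after K+ and Tl+ depolarization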
Activity calls are given as the source filed them.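 Rule for the calls: active = duplicate-averaged activation above buffer control mean plus 5 SD of those controls; inactive = the rest.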
// allowed return values: yes (1) (active), no (0) (inactive)

Observe how each entry below is paired with its result.
compound	assigned label
CCCCN(CCCC)c1cn[nH]c(=O)c1Cl	no (0)
CC(=O)NC(NC(C)=O)c1ccc(N(C)C)cc1	no (0)
CC(C)COc1ccc(-c2nn(-c3ccccc3)cc2C(=O)Nc2nccs2)cc1	no (0)
Cn1c(O)c(N=Nc2nc(-c3ccccc3)cs2)c2ccccc21	yes (1)
Cc1onc(-c2ccccc2)c1C(=O)NNC(=S)NC(=O)c1ccc(Br)cc1	no (0)

Prompt: // return assay outcome for CCOc1ccccc1OCC(=O)Nc1cc(S(=O)(=O)N2CCCCC2)ccc1N1CCN(CC)CC1
Response: no (0)

Prompt: // return assay outcome for Cc1ccc(NC2=C(NC(=O)c3ccccc3)C(=O)c3ccccc3C2=O)cc1Cl
Response: no (0)

Prompt: // return assay outcome for CC1(N2CCCCC2)CC2(O)C(=[N+]1[O-])CCC/C2=N\O (stereo unspecified)
Response: no (0)

Prompt: // return assay outcome for Cc1ccc(C(=O)CC(=O)COc2ccc(Cl)cc2)cc1
Response: no (0)

====

molecular target: Potassium voltage-gated channel subfamily KQT member 1 (Homo sapiens); test: KCNQ1 potassium channel potentiators, confirmation, FluxOR thallium flux, CHO cells, duplicates (AID 493007); conditions: KCNQ1 cell line, FluxOR thallium flux fluorescence, at 10 µM, % of reference activator effect, buffer zero
The source made the active and inactive calls.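 Rule for the calls: active = potentiation averaged over duplicate wells exceeding buffer-only control mean by more than 3 SD; inactive = the rest.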
// allowed return values: yes = active, no = inactive

molecule	experimental system	assigned label
CCn1c(CC(=O)Nc2ccccc2)nnc1SCC(=O)Nc1nncs1	Potassium voltage-gated channel subfamily KQT member 1 (Homo sapiens)	no
CS(=O)(=O)c1ccc(C(=O)OCc2nnc(-c3ccccc3)o2)cc1[N+](=O)[O-]	Potassium voltage-gated channel subfamily KQT member 1 (Homo sapiens)	no

Prompt: // return assay outcome for Oc1ccc(N=Nc2ccc3c(c2)OCCO3)c2ncccc12
Response: yes

Prompt: // return assay outcome for O=C(NC(=S)Nc1ccccc1Cl)c1csnn1
Response: yes

Prompt: // return assay outcome for O=C(ONC1=NCCCCC1)c1ccc(Cl)cc1
Response: no

Prompt: // return assay outcome for O=C(Nc1nc2c(F)cc(F)cc2s1)C1COc2ccccc2O1 (stereo unspecified)
Response: yes

Prompt: // return assay outcome for CC(C)CC(=O)NC(=S)Nc1nc(-c2ccccc2)cs1
Response: yes

Prompt: // return assay outcome for COc1ccc(-c2csc(N(CCCN(C)C)C(=O)c3ccccc3F)n2)cc1
Response: no

Prompt: // return assay outcome for COCC(=O)Nc1nnc(SCC(=O)N2C(C)CCCC2C)s1 (stereo unspecified)
Response: no

Prompt: // return assay outcome for CN1CCN(c2nc(-c3cccs3)cc(C(F)(F)F)n2)CC1
Response: no

Prompt: // return assay outcome for COc1cccc(C(=O)NC(=S)N2c3ccccc3CC2C)c1OC (stereo unspecified)
Response: no

====

target: Short transient receptor potential channel 6 (Mus musculus) (UniProt Q61143); assay: activation of mouse TRPC6 channel, confirmation, selectivity assay for TRPC4 activator project, cell-based, HEK293, membrane potential dye, duplicate (AID 434950); conditions: HEK293 TRPC6, membrane potential fluorescence, at 10 µM;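 for activation: 0% = buffer only wells and 100% = acetylcholine maximal-effect wells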
Sequence (Q61143 whole entry, looked up): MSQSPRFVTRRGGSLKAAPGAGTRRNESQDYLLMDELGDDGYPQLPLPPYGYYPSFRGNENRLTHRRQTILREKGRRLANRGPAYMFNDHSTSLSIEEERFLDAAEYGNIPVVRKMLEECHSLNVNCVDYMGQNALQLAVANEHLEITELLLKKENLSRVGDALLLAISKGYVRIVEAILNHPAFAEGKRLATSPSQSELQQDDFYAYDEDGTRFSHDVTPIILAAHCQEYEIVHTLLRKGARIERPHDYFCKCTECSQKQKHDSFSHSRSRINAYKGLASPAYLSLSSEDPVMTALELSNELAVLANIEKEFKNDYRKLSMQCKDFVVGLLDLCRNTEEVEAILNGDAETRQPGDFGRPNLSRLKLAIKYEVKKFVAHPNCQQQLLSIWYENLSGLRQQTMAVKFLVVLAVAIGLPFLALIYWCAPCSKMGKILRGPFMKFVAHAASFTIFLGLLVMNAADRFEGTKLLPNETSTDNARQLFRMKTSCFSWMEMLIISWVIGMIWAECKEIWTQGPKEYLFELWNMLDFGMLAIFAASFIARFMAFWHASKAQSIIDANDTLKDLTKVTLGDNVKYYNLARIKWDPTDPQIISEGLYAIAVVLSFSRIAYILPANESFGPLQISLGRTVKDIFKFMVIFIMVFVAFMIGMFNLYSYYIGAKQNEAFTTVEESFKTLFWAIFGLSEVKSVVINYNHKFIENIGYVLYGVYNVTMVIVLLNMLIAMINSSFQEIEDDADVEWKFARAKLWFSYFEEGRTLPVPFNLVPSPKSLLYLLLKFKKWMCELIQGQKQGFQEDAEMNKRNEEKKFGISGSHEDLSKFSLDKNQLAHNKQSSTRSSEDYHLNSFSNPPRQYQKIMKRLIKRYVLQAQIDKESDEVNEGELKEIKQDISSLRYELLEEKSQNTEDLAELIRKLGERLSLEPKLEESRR
The source made the active and inactive calls.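 The calls were made as follows: active = membrane potential signal rise above negative control mean plus 3 SD in both duplicates, also active in the earlier TRPC4 screen; inactive = the rest.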
// allowed return values: active, inactive

Observe how each entry below is paired with its result.
compound	assigned label
CC(NCCC1(Cc2ccccc2Cl)CCOC(C)(C)C1)c1cccs1 (stereo not given)	inactive
COc1ccc(-c2nc(CN3CCC(C(=O)NC4CCCC4)CC3)c(C)o2)cc1OC	active
CC(=O)Nc1ccc(CN2CCCC(C(=O)c3cccc(C(F)(F)F)c3)C2)cc1 (stereo not given)	active
CC1CCCN(CCCNC(=O)c2ccc3c(c2)N(Cc2ccccc2F)C(=O)c2ccccc2S3(=O)=O)C1 (stereo not given)	inactive
O=C(CNS(=O)(=O)c1ccc2ccccc2c1)NCCc1ccccn1	inactive
CN(C)CCCN(C(=O)c1ccc(C(=O)c2ccccc2)cc1)c1nc2ccc(F)cc2s1	inactive
COc1ccc(-c2nn(-c3ccccc3)cc2CNCc2cccnc2)c(F)c1	inactive
CCOC(=O)C1=NN(C(=O)c2ccc(C)cc2)C(O)(c2ccc(Cl)cc2)C1 (stereo not given)	active

Prompt: // return assay outcome for Cc1occc1C(=O)NNC(=S)NC(=O)COc1ccc(Cl)cc1Cl
Response: inactive

Prompt: // return assay outcome for CN(C)C1(CNC(=O)CC(NC(=O)c2ccccc2Cl)c2ccccc2)CCCCC1 (stereo not given)
Response: active

====

biological target: Potassium voltage-gated channel subfamily KQT member 1 (Homo sapiens) (UniProt P51787); assay: KCNQ1 potassium channel potentiators, confirmation, FluxOR thallium flux, CHO cells, duplicates (AID 493007); conditions: KCNQ1 cell line, FluxOR thallium flux fluorescence, at 10 µM, % of reference activator effect, buffer zero
Sequence (P51787 whole entry, looked up): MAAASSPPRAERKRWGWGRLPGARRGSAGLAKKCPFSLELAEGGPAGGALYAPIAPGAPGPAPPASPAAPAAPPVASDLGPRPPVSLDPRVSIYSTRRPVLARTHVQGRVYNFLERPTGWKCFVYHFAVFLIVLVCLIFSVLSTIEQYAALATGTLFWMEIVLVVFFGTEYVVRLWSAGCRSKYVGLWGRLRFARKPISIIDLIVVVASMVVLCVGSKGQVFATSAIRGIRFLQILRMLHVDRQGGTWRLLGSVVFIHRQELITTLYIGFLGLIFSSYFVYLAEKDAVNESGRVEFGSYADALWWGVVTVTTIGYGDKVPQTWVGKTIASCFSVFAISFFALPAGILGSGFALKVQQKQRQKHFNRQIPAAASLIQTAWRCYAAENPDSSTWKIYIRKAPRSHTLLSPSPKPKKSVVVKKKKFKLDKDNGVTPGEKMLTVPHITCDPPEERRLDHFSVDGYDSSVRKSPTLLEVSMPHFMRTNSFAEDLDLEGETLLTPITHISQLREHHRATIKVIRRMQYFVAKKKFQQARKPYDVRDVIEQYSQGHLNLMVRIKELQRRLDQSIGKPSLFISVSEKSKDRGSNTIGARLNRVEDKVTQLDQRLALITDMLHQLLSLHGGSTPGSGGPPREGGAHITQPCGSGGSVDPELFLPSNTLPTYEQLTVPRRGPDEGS
The source made the active and inactive calls.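 Rule for the calls: active = potentiation averaged over duplicate wells exceeding buffer-only control mean by more than 3 SD; inactive = the rest.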
// allowed return values: active, inactive

Observe how each entry below is paired with its result.
molecule	assigned label
CN1C=CC=C/C1=C1\SC(=S)N(C2CCCCC2)C1=O	inactive
C=CCN(CC=C)C(=S)NC(=O)c1ccc(C)c(Br)c1	active

Prompt: // return assay outcome for COc1cccc(-c2c(NC(=O)c3ccco3)n(-c3ccc(C)cc3)nc(C)c2=O)c1
Response: inactive

Prompt: // return assay outcome for CCCCn1c(SCC(N)=O)nc2ccc(N3CCOCC3)cc2c1=O
Response: inactive

Prompt: // return assay outcome for C/C(=N\NC(=S)Nc1cccc(C)c1)c1cc2ccccc2o1
Response: active

Prompt: // return assay outcome for N/C(=N\OC(=O)c1cccc2ccccc12)c1ccc(Br)cc1
Response: inactive

Prompt: // return assay outcome for COc1ccc(-c2csc(NC(=S)NC(=O)c3ccco3)n2)cc1
Response: active
